These measurements were taken from ChEMBL document CHEMBL1201862.

system: HOP-62; test: NCI tumour cell line growth inhibition, 48 h
Active and inactive are the calls of the source. Rule as the data show it: active = GI50 up to about 1.1 µM and inactive = higher.
Your reply should match one of these outcome classes. active, inactive

How did this test come out for "O=C(OCc1ccccc1)c1nc2ccccc2n1S(=O)(=O)c1ccccc1" ?
inactive

// param item: N#Cc1cccc(C2C(=O)c3ccc(C(=O)c4ccc5c(c4)C(=O)N(c4ccc(Oc6ccc(N7C(=O)c8ccc(C(=O)c9ccc%10c(c9)C(=O)N(c9cccc(C#N)c9)C%10=O)cc8C7=O)cc6)cc4)C5=O)cc3C2=O)c1 (stereo not drawn) ; yields the recorded call
inactive

Answer briefly: the call reported for C(=C(c1ccc(OC2CCCCO2)cc1)c1ccc(OC2CCCCO2)cc1)c1ccccc1 (stereo not drawn) in this assay.
active

What did the test return for "O=c1[nH]n(Cc2ccccc2Cl)c2ccccc12" ?
inactive

Assay result, entry COC1=CC(=O)[C@]2(C)[C@H](C1=O)C(C)[C@H]2c1ccc(OC)cc1 (stereo partly drawn) — outcome?
inactive

What did the test return for CNc1cccc2c1C(C)C[C@]1(C)C(=O)Nc3ccccc3[C@H]21 (stereo partly drawn) ?
inactive

Each molecule tested received a call. Report the one for "COc1ccc2cccc(C(=N)c3ccc(C)c4c3CCC4)c2c1" .
inactive

I'd appreciate the recorded outcome for O=C1C2c3[nH]c4ccccc4c3C3CCCCCC3C2C(=O)N1c1ccccc1 (stereo not drawn) from this test.
inactive

Kindly provide the recorded test outcome for the following molecule: "O=c1[nH]c(Br)nc2c(Br)c[nH]c12"
inactive

How was "C/C(=N/NC(=S)N1CCCCC1)c1cccc(/C(C)=N\NC(=S)N2CCCCC2)n1" classified in this test?
inactive

Check the results log: what was the call for COc1ccc(C2c3cc4c(cc3OC(NNC(N)=O)C2C)OCO4)cc1 (stereo not drawn) ?
inactive

Kindly provide the recorded test outcome for the following molecule: O=c1[nH]c(=O)n(C2CC(O)C(CO)O2)c2nc3ccc4ccccc4c3nc12 (stereo not drawn)
inactive

Would you mind telling me which call this test gave "C[n+]1ccc(Nc2ccc(NC(=O)c3ccc(Nc4cc[n+](C)c5ccc([N+](=O)[O-])cc45)cc3[N+](=O)[O-])cc2)cc1" ?
inactive

---

tested on: HCC 2998; assay: NCI tumour cell line growth inhibition, 48 h
Active and inactive are the calls of the source. Cut-off read from the data, not from the text of the source: active = GI50 up to about 1.1 µM and inactive = higher.
Thanks in advance; please answer with one of these: Y (active), N (inactive)

Please state the recorded outcome for this compound: COc1ccc(C[C@H](N)C(=O)NC2C(CO)OC(n3cnc4c(N(C)C)ncnc43)C2O)cc1 (stereo not given in full)
Y

What is the recorded call for this compound in the test? CC(C)(Cl)C(Br)CCC(Br)(CCl)C(Cl)CBr (stereo not given)
N

Dear colleague, could you share the recorded outcome for "Cc1ccc(-n2c3nc(=O)n(C)c(=O)c-3nc3ccccc32)cc1" when you have a moment?
N

Which result was noted for this compound in the test: COc1ccc(C2c3cc4c(cc3OC(NNC(N)=O)C2C)OCO4)cc1 (stereo not given)
N

Entry "CNCc1cc(OC)ccc1-c1ccc(OC)c(OC)c1OC" : call = ?
N

---

system: HT-29; experiment: NCI tumour cell line growth inhibition, 48 h
Calls of active or inactive are those of the source. Rule as the data show it: active = GI50 up to about 1.1 µM and inactive = higher.
Response enum: Y = active, N = inactive

# fetch the recorded call for "Cc1ccc2cccc(OC(=O)c3cc4c(cc3Cl)Sc3nccn3S4(=O)=O)c2n1" here
N

I would be grateful if you could indicate the recorded call for O=C1CSC(/C=C/c2ccccc2)N1c1ccc(-c2ccc(-n3c(-c4ccccc4)nc4ccccc4c3=O)cc2)cc1 (stereo not given) .
N

Assay outcome for O=C1c2ccccc2C2(O)Nc3cc(O)ccc3C12O (stereo not given) : what was it?
N

Just curious, what result did "Oc1cc(CN2CCOCCOCCOCCOCC2)c(O)cc1CN1CCOCCOCCOCCOCC1" get here?
N

Please share the test call associated with "CC(C)/C(Cl)=N\OC(=O)NNc1ccccc1" .
Y
